System: Staphylococcus aureus
test: Bactericidal activity against methicillin-resistant Staphylococcus aureus clinical isolate 2 after 24 hrs
Type: functional
measurement-parameters: isolate 2, 24 h
One threshold, 300 µg/mL, splits the recorded MBC values: lower ones are condition met, equal or higher ones are condition not met.

O=C(N[C@H](CO)[C@H](O)c1ccc([N+](=O)[O-])cc1)C(Cl)Cl [CHLORAMPHENICOL]: condition met

Now examine the next entry.
Problem: Please state whether MBC is below 300 µg/mL for CN[C@H](CC(C)C)C(=O)N[C@H]1C(=O)N[C@@H](CC(N)=O)C(=O)N[C@H]2C(=O)N[C@H]3C(=O)N[C@H](C(=O)N[C@H](C(=O)O)c4cc(O)cc(O)c4-c4cc3ccc4O)[C@H](O)c3ccc(c(Cl)c3)Oc3cc2cc(c3O[C@@H]2O[C@H](CO)[C@@H](O)[C@H](O)[C@H]2O[C@H]2C[C@](C)(N)[C@H](O)[C@H](C)O2)Oc2ccc(cc2Cl)[C@H]1O [VANCOMYCIN]
Solution: condition met

====

Test system: Staphylococcus aureus
test: Bactericidal activity against methicillin-resistant Staphylococcus aureus clinical isolate 20 after 24 hrs
Assay type: functional
measurement-parameters: isolate 20, 24 h
Each entry below carries its reported MBC.
Entry rule: numbers only, all in µg/mL.

Recorded MBC, per entry:
CCCCCCCCCCCC(=O)NCCN: 256
CCCCCCCC/C=C\CCCCCCCC(=O)NCCCN: 1020
O=C(N[C@H](CO)[C@H](O)c1ccc([N+](=O)[O-])cc1)C(Cl)Cl: 4

Okay, now this compound:
Field MBC (entry `CN[C@H](CC(C)C)C(=O)N[C@H]1C(=O)N[C@@H](CC(N)=O)C(=O)N[C@H]2C(=O)N[C@H]3C(=O)N[C@H](C(=O)N[C@H](C(=O)O)c4cc(O)cc(O)c4-c4cc3ccc4O)[C@H](O)c3ccc(c(Cl)c3)Oc3cc2cc(c3O[C@@H]2O[C@H](CO)[C@@H](O)[C@H](O)[C@H]2O[C@H]2C[C@](C)(N)[C@H](O)[C@H](C)O2)Oc2ccc(cc2Cl)[C@H]1O` ) reads 0.5

====

# MBC per entry
System: Staphylococcus aureus
test: Bactericidal activity against methicillin-resistant Staphylococcus aureus clinical isolate 4 after 24 hrs
Assay type: functional
measurement-parameters: isolate 4, 24 h
Express it in µg/mL; write the number only.

CCCCCCCC/C=C\CCCCCCCC(=O)NCCCN: 512
O=C(N[C@H](CO)[C@H](O)c1ccc([N+](=O)[O-])cc1)C(Cl)Cl [CHLORAMPHENICOL]: 8
CN[C@H](CC(C)C)C(=O)N[C@H]1C(=O)N[C@@H](CC(N)=O)C(=O)N[C@H]2C(=O)N[C@H]3C(=O)N[C@H](C(=O)N[C@H](C(=O)O)c4cc(O)cc(O)c4-c4cc3ccc4O)[C@H](O)c3ccc(c(Cl)c3)Oc3cc2cc(c3O[C@@H]2O[C@H](CO)[C@@H](O)[C@H](O)[C@H]2O[C@H]2C[C@](C)(N)[C@H](O)[C@H](C)O2)Oc2ccc(cc2Cl)[C@H]1O [VANCOMYCIN]: 1
CCCCCCCCCCCCCC(=O)NCCN: 512

# next compound below
The compound identified as `CCCCCCCCCCCC(=O)NCCN` registered its MBC at 256

====

System: Nakaseomyces glabratus
test: Antifungal activity against Candida glabrata ATCC 90030 by broth microdilution method
Assay type: functional
experimental-readout: MIC (µg/mL)
Express the result in µg/mL but write the number alone.

CCCCCCCC/C=C\CCCCCCCC(=O)NCCN: 64

Moving on to the next compound.
Record `CCCCCCCCCCCC(=O)NCCCN` . Reported MIC: 32
